Experiment: Solubility pH 7
Conditions: pH 7, aqueous buffer
Recorded metric: solubility (µg/mL)

INSERT INTO assay_data (molecule, experimental_result) VALUES
  ('COc1ccc(C[C@H](NC(=O)[C@@H](C)NC(=O)C2CCCCC2)C(=O)N[C@@H](Cc2ccccc2)C(=O)[C@@]2(C)CO2)cc1', 12.1),
  ('COc1ccc(C[C@H](NC(=O)C(C)NC(=O)CN2CCOCC2)C(=O)N[C@H](C(=O)[C@@]2(C)CO2)c2ccccc2)cc1 (stereo partly shown)', 1890),
  ('COc1ccc(C[C@H](NC(=O)[C@H](C)NC(=O)CN2CCOCC2)C(=O)N[C@@H](CC2=CC(C)CC2)C(=O)[C@@]2(C)CO2)cc1 (stereo partly shown)', 1830),
  ('COc1ccc(C[C@H](NC(=O)[C@H](C)NC(=O)CN2CCOCC2)C(=O)N[C@@H](CC2CCCC2)C(=O)[C@@]2(C)CO2)cc1O', 5840),
  ('C[C@H](NC(=O)CN1CCOCC1)C(=O)N[C@@H](Cc1cc[n+]([O-])cc1)C(=O)N[C@@H](CC1CCCC1)C(=O)[C@@]1(C)CO1', 10600),
  ('COc1ccc(C[C@H](NC(=O)[C@@H](C)NC(=O)[C@H]2CC[C@H](O)CC2)C(=O)N[C@@H](CC2CC=CC2)C(=O)[C@@]2(C)CO2)cc1', 1150),
  ('COc1ccc(C[C@H](NC(=O)[C@@H](C)NC(=O)[C@H]2CC[C@H](O)CC2)C(=O)N[C@@H](Cc2ccc(O)cc2)C(=O)[C@@]2(C)CO2)cc1', 4250),
  ('COc1ccc(C[C@H](NC(=O)[C@H](C)NC(=O)CN2CCOCC2)C(=O)N[C@@H](CC2=CCCC2)C(=O)[C@@]2(C)CO2)cc1O', 8190),
  ('C[C@H](NC(=O)CN1CCOCC1)C(=O)N[C@@H](Cc1ccc(OC(F)(F)F)cc1)C(=O)N[C@@H](CC1CCCC1)C(=O)[C@@]1(C)CO1', 125),
  ('COc1ccc(C[C@H](NC(=O)[C@@H](C)NC(=O)[C@]2(C)CC[C@H](O)CC2)C(=O)N[C@@H](CC2=CCCC2)C(=O)[C@@]2(C)CO2)cc1', 1110),
  ('COc1ccc(C[C@H](NC(=O)[C@@H](C)NC(=O)C2CCOCC2)C(=O)N[C@@H](CC2CCCC2)C(=O)[C@@]2(C)CO2)cc1', 215),
  ('COc1ccc(C[C@H](NC(=O)[C@@H](C)NC(=O)C2CCCC2)C(=O)N[C@@H](Cc2ccccc2)C(=O)[C@@]2(C)CO2)cc1', 22.7),
  ('COc1ccc(C[C@H](NC(=O)[C@@H](C)NC(=O)[C@H]2CCCOC2)C(=O)N[C@@H](CC2CCCC2)C(=O)[C@@]2(C)CO2)cc1', 648),
  ('C[C@H](NC(=O)CN1CCOCC1)C(=O)N[C@@H](Cc1ccc2occc2c1)C(=O)N[C@@H](CC1CCCC1)C(=O)[C@@]1(C)CO1', 878),
  ('COc1ccc(C[C@H](NC(=O)[C@@H](C)NC(=O)[C@H]2CC[C@@H](O)CC2)C(=O)N[C@@H](CC2=CCCCC2)C(=O)[C@@]2(C)CO2)cc1', 256),
  ('COc1ccc(C[C@H](NC(=O)[C@H](C)NC(=O)CN2CCC(C)(O)CC2)C(=O)N[C@@H](CC2=CCCC2)C(=O)[C@@]2(C)CO2)cc1', 287),
  ('COc1ccc(C[C@H](NC(=O)[C@H](C)NC(=O)CN2CCOCC2)C(=O)N[C@@H](C[C@H]2C[C@@H]3C[C@@H]3C2)C(=O)[C@@]2(C)CO2)cc1', 1670),
  ('COc1ccc(C[C@H](NC(=O)[C@H](C)NC(=O)CN2CCOCC2)C(=O)N[C@@H](CC2CC=CC2)C(=O)[C@@]2(C)CO2)cc1', 3200),
  ('C[C@H](NC(=O)CN1CCOCC1)C(=O)N[C@@H](Cc1ccc(C(N)=O)cc1)C(=O)N[C@@H](CC1CCCC1)C(=O)[C@@]1(C)CO1', 3510),
  ('COc1ccc(C[C@H](NC(=O)[C@@H](C)NC(=O)[C@@H]2CCOC2)C(=O)N[C@@H](CC2CCCC2)C(=O)[C@@]2(C)CO2)cc1', 277),
  ('C[C@H](NC(=O)CN1CCOCC1)C(=O)N[C@@H](Cc1cccc(O)c1)C(=O)N[C@@H](CC1CCCC1)C(=O)[C@@]1(C)CO1', 793),
  ('COc1ccc(C[C@H](NC(=O)[C@@H](C)NC(=O)[C@H]2C[C@H](O)C2)C(=O)N[C@@H](CC2CCCC2)C(=O)[C@@]2(C)CO2)cc1', 1830);

###

Each record here notes measured IC50.
Biological target: immunoproteasome subunit LMP7 (Homo sapiens)
Construct: Lysate from the human acute lymphoblastic leukemia cell line, MOLT-4; endogenous in cells; host or cells: MOLT-4
Assay: Proteasome active-site ELISA (ProCISE), LMP7, MOLT-4 lysate
Format: biochemical
Settings: MOLT4 lysate, 1 h continuous treatment, 25° C.
Recorded metric: IC50 (nM)

INSERT INTO results (compound_string, target_entity, experimental_result) VALUES
  ('COc1ccc(C[C@H](NC(=O)[C@H](C)NC(=O)CC2CCOCC2)C(=O)N[C@@H](CC2CCCC2)C(=O)[C@@]2(C)CO2)cc1', 'immunoproteasome subunit LMP7 (Homo sapiens)', 99.6),
  ('COc1ccc(C[C@H](NC(=O)[C@H](C)NC(=O)CN2CCC(O)CC2)C(=O)N[C@@H](CC2=CCCC2)C(=O)[C@@]2(C)CO2)cc1', 'immunoproteasome subunit LMP7 (Homo sapiens)', 43.8),
  ('COc1ccc(C[C@H](NC(=O)[C@H](CO)NC(=O)CN2CCOCC2)C(=O)N[C@@H](CC2=CCCCC2)C(=O)[C@@]2(C)CO2)cc1O', 'immunoproteasome subunit LMP7 (Homo sapiens)', 181),
  ('COc1ccc(C[C@H](NC(=O)[C@@H](C)NC(=O)[C@H]2CC[C@@H](O)CC2)C(=O)N[C@@H](CC2=CCCC2)C(=O)[C@@]2(C)CO2)cc1', 'immunoproteasome subunit LMP7 (Homo sapiens)', 2.72),
  ('CC[C@H](NC(=O)CN1CCOCC1)C(=O)N[C@@H](Cc1ccc(OC)cc1)C(=O)N[C@@H](CC1CCCC1)C(=O)[C@@]1(C)CO1', 'immunoproteasome subunit LMP7 (Homo sapiens)', 49.8),
  ('COc1ccc(C[C@H](NC(=O)[C@@H](C)NC(=O)C2COC2)C(=O)N[C@@H](CC2=CCCC2)C(=O)[C@@]2(C)CO2)cc1', 'immunoproteasome subunit LMP7 (Homo sapiens)', 953);

###

Each record here notes measured log10(solubility).
Test: Solubility pH 7
Conditions: pH 7, aqueous buffer
Recorded metric: log10(solubility) (log10 of the value in µg/mL)

INSERT INTO assay_data (compound, recorded_metric, experimental_result) VALUES
  ('COc1ccc(C[C@H](NC(=O)[C@@H](NC(=O)CN2CCOCC2)[C@@H](C)O)C(=O)N[C@@H](Cc2ccccc2)C(=O)[C@@]2(C)CO2)cc1 [Compound C-1173]', 'log10(solubility)', 3.37),
  ('COc1ccc(C[C@H](NC(=O)[C@H](C)NC(=O)CN2CCOCC2)C(=O)N[C@@H](CC2=CCCCC2)C(=O)[C@@]2(C)CO2)cc1 [Compound C-1019]', 'log10(solubility)', 3.25),
  ('C[C@H](NC(=O)CN1CCOCC1)C(=O)N[C@@H](Cc1c[nH]c2ccccc12)C(=O)N[C@@H](CC1CCCC1)C(=O)[C@@]1(C)CO1 [Compound C-1014]', 'log10(solubility)', 3.01),
  ('CC#CC[C@H](NC(=O)[C@H](Cc1ccc(OC)cc1)NC(=O)[C@H](C)NC(=O)CN1CCOCC1)C(=O)[C@@]1(C)CO1 [Compound C-1228]', 'log10(solubility)', 2.83),
  ('COc1ccc(C[C@H](NC(=O)[C@H](C)NC(=O)C2COC2)C(=O)N[C@@H](Cc2ccccc2)C(=O)[C@@]2(C)CO2)cc1 [Compound C-1168]', 'log10(solubility)', 2.33),
  ('COc1ccc([C@@H](O)[C@H](NC(=O)[C@@H](C)NC(=O)[C@H]2CC[C@H](O)CC2)C(=O)N[C@@H](CC2CCCC2)C(=O)[C@@]2(C)CO2)cc1 [Compound C-1079]', 'log10(solubility)', 3.31);

###

For human constitutive 20S proteasome (c20S) (Homo sapiens), measured IC50 is reported for the entries below.
Recorded metric: IC50 (µM)

INSERT INTO measurements (compound_string, target_entity, recorded_metric, relation_operator, experimental_result) VALUES
  ('COc1ccc(C[C@H](NC(=O)[C@H](C)NC(=O)CN2CCOCC2)C(=O)N[C@@H](Cc2ccc(O)cc2)C(=O)[C@@]2(C)CO2)cc1', 'human constitutive 20S proteasome (c20S) (Homo sapiens)', 'IC50', '=', 1.61),
  ('COc1ccc(C[C@H](NC(=O)[C@@H](C)NC(=O)[C@H]2CCC(=O)NC2)C(=O)N[C@@H](CC2CCCC2)C(=O)[C@@]2(C)CO2)cc1', 'human constitutive 20S proteasome (c20S) (Homo sapiens)', 'IC50', '=', 38.4),
  ('COc1ccc(C[C@H](NC(=O)[C@@H](C)NC(=O)[C@H]2CCCOC2)C(=O)N[C@@H](CC2CCCC2)C(=O)[C@@]2(C)CO2)cc1', 'human constitutive 20S proteasome (c20S) (Homo sapiens)', 'IC50', '=', 3.77),
  ('COc1ccc(C[C@H](NC(=O)[C@@H](C)NC(=O)C2CCOCC2)C(=O)N[C@@H](CC2CCCC2)C(=O)[C@@]2(C)CO2)cc1', 'human constitutive 20S proteasome (c20S) (Homo sapiens)', 'IC50', '=', 1.01),
  ('COc1ccc(C[C@H](NC(=O)[C@H](C)NC(=O)CN2CCC(F)(F)C2)C(=O)N[C@@H](CC2CCCC2)C(=O)[C@@]2(C)CO2)cc1', 'human constitutive 20S proteasome (c20S) (Homo sapiens)', 'IC50', '=', 2.63),
  ('COc1ccc(C[C@H](NC(=O)[C@@H](C)NC(=O)[C@@H]2CCOC2)C(=O)N[C@@H](CC2CCCC2)C(=O)[C@@]2(C)CO2)cc1', 'human constitutive 20S proteasome (c20S) (Homo sapiens)', 'IC50', '=', 16.5),
  ('COc1ccc(C[C@H](NC(=O)[C@@H](C)NC(=O)[C@H]2C[C@H](O)C2)C(=O)N[C@@H](CC2CCCC2)C(=O)[C@@]2(C)CO2)cc1', 'human constitutive 20S proteasome (c20S) (Homo sapiens)', 'IC50', '=', 7.03),
  ('COc1ccc(C[C@H](NC(=O)[C@@H](C)NC(=O)[C@H]2CCOC2)C(=O)N[C@@H](CC2CCCC2)C(=O)[C@@]2(C)CO2)cc1', 'human constitutive 20S proteasome (c20S) (Homo sapiens)', 'IC50', '=', 5.86),
  ('COc1ccc(C[C@H](NC(=O)[C@@H](C)NC(=O)CC2CCOCC2)C(=O)N[C@@H](CC2CCCC2)C(=O)[C@@]2(C)CO2)cc1', 'human constitutive 20S proteasome (c20S) (Homo sapiens)', 'IC50', '=', 1.55),
  ('COc1ccc(C[C@H](NC(=O)[C@@H](C)NC(=O)[C@@H]2CCCO2)C(=O)N[C@@H](CC2CCCC2)C(=O)[C@@]2(C)CO2)cc1', 'human constitutive 20S proteasome (c20S) (Homo sapiens)', 'IC50', '>', 250),
  ('COc1ccc(C[C@H](NC(=O)[C@H](C)NC(=O)CN2CCOCC2)C(=O)N[C@@H](CC2CCCC2)C(=O)[C@@]2(C)CO2)c(F)c1', 'human constitutive 20S proteasome (c20S) (Homo sapiens)', 'IC50', '=', 3.38),
  ('C[C@H](NC(=O)CN1CCOCC1)C(=O)N[C@@H](Cc1ccc(S(C)(=O)=O)cc1)C(=O)N[C@@H](CC1CCCC1)C(=O)[C@@]1(C)CO1', 'human constitutive 20S proteasome (c20S) (Homo sapiens)', 'IC50', '=', 0.775);
